- Tested on: MDA-MB-231
- METHOD: NCI tumour cell line growth inhibition, 48 h
Calls of active or inactive are those of the source. Cut-off read from the data, not from the text of the source: active = GI50 up to about 1.1 µM and inactive = higher.
Give one outcome, nothing more. List: active, inactive

Answered cases to consult:
{"COMPOUND": "OCCNc1nc2c(N3CCCC3)nc(N3CCNCC3)nc2nc1NCc1ccccc1", "CLASS NAME": "inactive"}
{"COMPOUND": "Fc1ccc2nc3n(c2c1)C(c1c(F)cccc1F)SC3 (stereo not given)", "CLASS NAME": "inactive"}
{"COMPOUND": "CSC(SC)=C(C#N)C(=O)Nc1ccc(C)cc1", "CLASS NAME": "inactive"}

Assay result, entry CCOC(=O)c1ccc(Nc2cnc3ccc(C(F)(F)F)cc3n2)cc1 — outcome? inactive

How about this compound: O=[N+]([O-])C(=C(N1CCCCC1)N1CCCCC1)/C(Cl)=C(\Cl)Br inactive

How about this compound: CN1CN(c2ccccc2)C2(CCN(C(=O)OC(C)(C)C)CC2)C1=O inactive

How about this compound: O[C@@H]1C[C@H]2N3CC[C@@]2(c2cc4c(cc2C3)OCO4)[C@H]2O[C@@H]12 inactive

How about this compound: C[C@H](CO)C1=CC(C#C[Si](C)(C)C)N(C(=O)Oc2ccccc2)c2ccccc21 (stereo not given in full) inactive

How about this compound: C=CCNC1=C2C[C@@H](C)C[C@@H](OC)[C@H](OC(=O)CN(C)C)[C@H](C)/C=C(\C)[C@@H](OC(N)=O)[C@H](OC)/C=C\C=C(/C)C(=O)NC(=CC1=O)C2=O inactive

How about this compound: COc1cc(C2C3=C(COC3=O)Oc3cc4c(cc32)OCO4)cc(OC)c1OC (stereo not given) active

How about this compound: O=C(C(=O)n1ccc2ccccc21)n1ccc2ccccc21 inactive

How about this compound: C[Si](C)(C)CNC(=O)OCc1ccccc1 inactive

* * *

- Test system: NCI-H226
- METHOD: NCI tumour cell line growth inhibition, 48 h
Activity calls are given as the source filed them. Cut-off read from the data, not from the text of the source: active = GI50 up to about 1.1 µM and inactive = higher. Starred links: 1 amine or outer side, 2 acyl side, 3 side chain; linkers in the order of their positions; H or OH if unused. Positions of bridges follow the written chain, without caps; N, C: chain ends. Non-standard residues stand in square brackets, D forms with d. Residues, ends and D or L forms follow the SMILES beside them. Chains are numbered I, II in the order given. Actinocin(1to9) = Cc1c2oc3c(C)ccc(C(=O)[*:2])c3nc-2c(C(=O)[*:1])c(N)c1=O; NMeV = CN[CH](C(=O)O)C(C)C; Sar = CNCC(=O)O
Give one outcome, nothing more. List: yes for active, no for inactive

{"COMPOUND": "C=C1C(=O)O[C@@H]2C[C@@]3(C)CCCC(=C)[C@@H]3C[C@H]12.C=C1C(=O)O[C@@H]2C[C@@]3(C)CCC[C@H](C)C3=C[C@H]12", "CLASS NAME": "no"}
{"COMPOUND": "Cc1c2ccccc2c(=O)n2c(-c3ccccn3)cccc12", "CLASS NAME": "no"}
{"COMPOUND": "CCCCCCCCCC1CC(=O)NCC(=O)NC(C(C)C)C(=O)NC(CC(C)C)C(=O)NC(C)C(=O)NC(C(C)C)C(=O)O1 (centres undefined)", "CLASS NAME": "no"}

Switching to the query record.
Assay result, entry CCC(C)C1NC(=O)C(NC(=O)c2c3nc4c(C(=O)NC5C(=O)NC(C(C)CC)C(=O)N6CCCC6C(=O)N(C)CC(=O)N(C)C(C(C)C)C(=O)OC5C)ccc(C)c4oc-3c(C)c(=O)c2N)C(C)OC(=O)C(C(C)C)N(C)C(=O)CN(C)C(=O)C2CCCN2C1=O (centres undefined) (I: TIP[Sar][NMeV] / II: TIP[Sar][NMeV]; ester I:1-I:C, II:1-II:C; linker I:N-II:N via Actinocin(1to9); configuration not given here) — outcome? yes
